Values from patent US20230058171A1

- measurement notes: Preliminary pharmacokinetics in trial 1403-0001 (Arm A D1 q3w, Arm B D1 D8 q4w)
- Assay type: in vivo, human
- condition notes: human, plasma, oral, after tablet intake, across dose groups; read-out: tmax
assay endpoint: Tmax

# smi, experimental value
records = [
    ("Cc1c(C(=O)O)ccc2c3n(nc12)[C@@H]1[C@H](C3)N(CC2CC2)[C@@]2(C(=O)Nc3cc(Cl)ccc32)[C@H]1c1cccc(Cl)c1F", "4 to 6 h"),
]

---

- measurement notes: Preliminary pharmacokinetics in trial 1403-0001 (Arm A D1 q3w, Arm B D1 D8 q4w)
- Type: in vivo, human
- condition notes: human, plasma, oral, 5 mg, Day 8, D1 D8 q4w (Arm B), gMean, N=3; read-out: t1/2 (converted)

# smi, half-life / h
rows = [
    ("Cc1c(C(=O)O)ccc2c3n(nc12)[C@@H]1[C@H](C3)N(CC2CC2)[C@@]2(C(=O)Nc3cc(Cl)ccc32)[C@H]1c1cccc(Cl)c1F", 46.2),
]
